# System: Digitaria ciliaris
# assay-info: Phytotoxicity against Digitaria ciliaris germinated seed assessed as growth inhibition at 100 mg/L after 72 hr by culture dish method
# Assay type: functional
# test-parameters: read-out: GI
readout-label: inhibition of growth at 100 µg/mL (%)
Field: numeric (%). Do not append units.

Some solved cases for reference:
1. COc1cc(Cl)nc2n/c(=N/C(=O)c3c(-c4ccc(Cl)cc4Cl)noc3C)sn12 = 72.8
2. Cc1cc(O)n2s/c(=N\C(=O)c3c(-c4ccc(Cl)cc4Cl)noc3C)nc2n1 = 72.1

query: // map CSc1cc(C)nc(NC(=S)NC(=O)c2c(-c3ccc(Cl)cc3Cl)noc2C)n1 to recorded inhibition of growth at 100 µg/mL (system: Digitaria ciliaris)
result: 45.5

query: What do you get for COc1cc(OC)nc(NC(=S)NC(=O)c2c(-c3ccc(Cl)cc3Cl)noc2C)n1 ?
result: 65.9

---

Quick reference for inhibition of growth at 100 µg/mL among some molecules
# System: Digitaria ciliaris
# assay-info: Phytotoxicity against Digitaria ciliaris germinated seed assessed as growth inhibition at 100 mg/L after 72 hr by culture dish method
# Format: functional
# test-parameters: read-out: GI
Answer with the number, then the unit.

Some solved cases for reference:
1. Cc1cc(Cl)nc(NC(=S)NC(=O)c2c(-c3ccc(Cl)cc3Cl)noc2C)n1 = 44.2%
2. Cc1onc(-c2ccc(Cl)cc2Cl)c1C(=O)/N=c1/nc2nc(Cl)cc(C)n2s1 = 68.1%
3. COc1cc(SC)nc(NC(=S)NC(=O)c2c(-c3ccc(Cl)cc3Cl)noc2C)n1 = 55.6%
4. Cc1cc(C)nc(NC(=S)NC(=O)c2c(-c3ccc(Cl)cc3Cl)noc2C)n1 = 61.4%
5. Cc1cc(C)n2s/c(=N\C(=O)c3c(-c4ccc(Cl)cc4Cl)noc3C)nc2n1 = 84.9%
6. CSc1cc(C)nc2n/c(=N/C(=O)c3c(-c4ccc(Cl)cc4Cl)noc3C)sn12 = 70.6%

query: Fill in the blank: the reported inhibition of growth at 100 µg/mL of COc1cc(SC)nc2n/c(=N/C(=O)c3c(-c4ccc(Cl)cc4Cl)noc3C)sn12 is ____.
result: 79.6%

query: What do you get for COc1cc(Cl)nc(NC(=S)NC(=O)c2c(-c3ccc(Cl)cc3Cl)noc2C)n1 ?
result: 62.2%

query: What do you get for COc1cc(C)nc(NC(=S)NC(=O)c2c(-c3ccc(Cl)cc3Cl)noc2C)n1 ?
result: 60.2%

---

# System: Brassica napus
# assay-info: Phytotoxicity against Brassica napus (oilseed rape) germinated seed assessed as growth inhibition at 100 mg/L after 72 hr by culture dish method
# Format: functional
# test-parameters: read-out: GI
readout-label: inhibition of growth at 100 µg/mL (%)
Field: numeric (%). Do not append units.

Some solved cases for reference:
1) Cc1cc(O)nc(NC(=S)NC(=O)c2c(-c3ccc(Cl)cc3Cl)noc2C)n1 = 52.3
2) COc1cc(SC)nc(NC(=S)NC(=O)c2c(-c3ccc(Cl)cc3Cl)noc2C)n1 = 69.2

query: Fill in the blank: the reported inhibition of growth at 100 µg/mL of Cc1cc(C)n2s/c(=N\C(=O)c3c(-c4ccc(Cl)cc4Cl)noc3C)nc2n1 is ____.
result: 76.8

query: What do you get for Cc1cc(O)n2s/c(=N\C(=O)c3c(-c4ccc(Cl)cc4Cl)noc3C)nc2n1 ?
result: 79.2

query: What do you get for Cc1onc(-c2ccc(Cl)cc2Cl)c1C(=O)/N=c1/nc2nc(Cl)cc(C)n2s1 ?
result: 70.2

---

Quick reference for inhibition of growth at 10 µg/mL among some compounds
# System: Digitaria ciliaris
# assay-info: Phytotoxicity against Digitaria ciliaris germinated seed assessed as growth inhibition at 10 mg/L after 72 hr by culture dish method
# Type: functional
# test-parameters: read-out: GI
Field: numeric (%). Do not append units.

Some solved cases for reference:
1) COc1cc(SC)nc(NC(=S)NC(=O)c2c(-c3ccc(Cl)cc3Cl)noc2C)n1 = 34.8
2) COc1cc(C)nc2n/c(=N/C(=O)c3c(-c4ccc(Cl)cc4Cl)noc3C)sn12 = 50.3
3) COc1cc(SC)nc2n/c(=N/C(=O)c3c(-c4ccc(Cl)cc4Cl)noc3C)sn12 = 19.8
4) Cc1cc(C)n2s/c(=N\C(=O)c3c(-c4ccc(Cl)cc4Cl)noc3C)nc2n1 = 15.2
5) Cc1onc(-c2ccc(Cl)cc2Cl)c1C(=O)/N=c1/nc2nc(Cl)cc(C)n2s1 = 32.8

query: // map CSc1cc(C)nc2n/c(=N/C(=O)c3c(-c4ccc(Cl)cc4Cl)noc3C)sn12 to recorded inhibition of growth at 10 µg/mL (system: Digitaria ciliaris)
result: 26.8

query: What do you get for Cc1cc(C)nc(NC(=S)NC(=O)c2c(-c3ccc(Cl)cc3Cl)noc2C)n1 ?
result: 26.5

query: What do you get for COc1cc(Cl)nc2n/c(=N/C(=O)c3c(-c4ccc(Cl)cc4Cl)noc3C)sn12 ?
result: 16.5

query: What do you get for Cc1cc(O)nc(NC(=S)NC(=O)c2c(-c3ccc(Cl)cc3Cl)noc2C)n1 ?
result: -6.24

---

# Tested on: Brassica napus
# assay-info: Phytotoxicity against Brassica napus (oilseed rape) germinated seed assessed as growth inhibition at 100 mg/L after 72 hr by culture dish method
# Format: functional
# test-parameters: read-out: GI
readout-label: inhibition of growth at 100 µg/mL (%)
Field: numeric (%). Do not append units.

Some solved cases for reference:
1. COc1cc(C)nc(NC(=S)NC(=O)c2c(-c3ccc(Cl)cc3Cl)noc2C)n1 = 69.3
2. CSc1cc(C)nc2n/c(=N/C(=O)c3c(-c4ccc(Cl)cc4Cl)noc3C)sn12 = 62.8

query: Fill in the blank: the reported inhibition of growth at 100 µg/mL of COc1cc(SC)nc2n/c(=N/C(=O)c3c(-c4ccc(Cl)cc4Cl)noc3C)sn12 is ____.
result: 75.8

---

# Tested on: Digitaria ciliaris
# assay-info: Phytotoxicity against Digitaria ciliaris germinated seed assessed as growth inhibition at 10 mg/L after 72 hr by culture dish method
# Assay type: functional
# test-parameters: read-out: GI
Kindly return Y if reported inhibition of growth at 10 µg/mL is no lower than 30%; return N if it is lower.

The examples below pair each entry with its known result.
1) Cc1cc(Cl)nc(NC(=S)NC(=O)c2c(-c3ccc(Cl)cc3Cl)noc2C)n1 = N
2) COc1cc(OC)nc(NC(=S)NC(=O)c2c(-c3ccc(Cl)cc3Cl)noc2C)n1 = Y
3) COc1cc(OC)n2s/c(=N\C(=O)c3c(-c4ccc(Cl)cc4Cl)noc3C)nc2n1 = Y
4) CSc1cc(C)nc(NC(=S)NC(=O)c2c(-c3ccc(Cl)cc3Cl)noc2C)n1 = N
5) COc1cc(Cl)nc(NC(=S)NC(=O)c2c(-c3ccc(Cl)cc3Cl)noc2C)n1 = N

query: Textbook exercise: given the entry CCOC(=O)[C@@H](C)Oc1ccc(Oc2nc3ccc(Cl)cc3o2)cc1 , state whether its inhibition of growth at 10 µg/mL is greater than or equal to 30%.
result: Y

---

Quick reference for inhibition of growth at 100 µg/mL among some molecules
# Test system: Brassica napus
# assay-info: Phytotoxicity against Brassica napus (oilseed rape) germinated seed assessed as growth inhibition at 100 mg/L after 72 hr by culture dish method
# Type: functional
# test-parameters: read-out: GI
Field: numeric (%). Do not append units.

Some solved cases for reference:
1) COc1cc(Cl)nc2n/c(=N/C(=O)c3c(-c4ccc(Cl)cc4Cl)noc3C)sn12 = 70.8
2) CCOC(=O)[C@@H](C)Oc1ccc(Oc2nc3ccc(Cl)cc3o2)cc1 = 42.2
3) COc1cc(OC)nc(NC(=S)NC(=O)c2c(-c3ccc(Cl)cc3Cl)noc2C)n1 = 70.8
4) COc1cc(C)nc2n/c(=N/C(=O)c3c(-c4ccc(Cl)cc4Cl)noc3C)sn12 = 80.6
5) COc1cc(Cl)nc(NC(=S)NC(=O)c2c(-c3ccc(Cl)cc3Cl)noc2C)n1 = 61
6) Cc1cc(C)nc(NC(=S)NC(=O)c2c(-c3ccc(Cl)cc3Cl)noc2C)n1 = 68
7) CSc1cc(C)nc(NC(=S)NC(=O)c2c(-c3ccc(Cl)cc3Cl)noc2C)n1 = 73.6
8) COc1cc(OC)n2s/c(=N\C(=O)c3c(-c4ccc(Cl)cc4Cl)noc3C)nc2n1 = 85.6

We next turn to a different molecule, shown below.
query: Fill in the blank: the reported inhibition of growth at 100 µg/mL of Cc1cc(Cl)nc(NC(=S)NC(=O)c2c(-c3ccc(Cl)cc3Cl)noc2C)n1 is ____.
result: 50.8

---

# System: Digitaria ciliaris
# assay-info: Phytotoxicity against Digitaria ciliaris germinated seed assessed as growth inhibition at 100 mg/L after 72 hr by culture dish method
# Type: functional
# test-parameters: read-out: GI
readout-label: inhibition of growth at 100 µg/mL (%)
Field: numeric (%). Do not append units.

1. Cc1cc(O)nc(NC(=S)NC(=O)c2c(-c3ccc(Cl)cc3Cl)noc2C)n1 = 49.3
2. CCOC(=O)[C@@H](C)Oc1ccc(Oc2nc3ccc(Cl)cc3o2)cc1 = 85.6
3. COc1cc(C)nc2n/c(=N/C(=O)c3c(-c4ccc(Cl)cc4Cl)noc3C)sn12 = 80.6

query: Fill in the blank: the reported inhibition of growth at 100 µg/mL of COc1cc(OC)n2s/c(=N\C(=O)c3c(-c4ccc(Cl)cc4Cl)noc3C)nc2n1 is ____.
result: 85.3
